# PROCEDURE DETAILS: PK in rat, oils or preformed emulsions by oral gavage
# Set-up: species or system Sprague Dawley rats
# ASSAY CONDITIONS: Sprague-Dawley, in vivo, 100 mg/kg, crystalline ethanolate, Miglyol/Cremophor/0.5% HPMCAS 40/10/50, 100 mg/kg, Tlast = 24 hr
ENDPOINT NAME: AUC(0-t) (ng·h/mL)

[[record]]
molecule = "CCOC(=O)N1c2ccc(C(F)(F)F)cc2[C@@H](N(Cc2cc(C(F)(F)F)cc(C(F)(F)F)c2)C(=O)OC)C[C@H]1CC [Compound A]"
endpoint_name = "AUC(0-t)"
uom = "ng·h/mL"
recorded_result = 15000

